Target: T1, human monocarboxylate transporter 1 (MCT1) (human, UniProt P53985 1-500)
T1 construct: Multi-pass transmembrane transporter, endogenous on HEK WT / HEK293T cells and on primary human T and B cells in the assays; also called human MCT1; SLC16A1
T1 sequence: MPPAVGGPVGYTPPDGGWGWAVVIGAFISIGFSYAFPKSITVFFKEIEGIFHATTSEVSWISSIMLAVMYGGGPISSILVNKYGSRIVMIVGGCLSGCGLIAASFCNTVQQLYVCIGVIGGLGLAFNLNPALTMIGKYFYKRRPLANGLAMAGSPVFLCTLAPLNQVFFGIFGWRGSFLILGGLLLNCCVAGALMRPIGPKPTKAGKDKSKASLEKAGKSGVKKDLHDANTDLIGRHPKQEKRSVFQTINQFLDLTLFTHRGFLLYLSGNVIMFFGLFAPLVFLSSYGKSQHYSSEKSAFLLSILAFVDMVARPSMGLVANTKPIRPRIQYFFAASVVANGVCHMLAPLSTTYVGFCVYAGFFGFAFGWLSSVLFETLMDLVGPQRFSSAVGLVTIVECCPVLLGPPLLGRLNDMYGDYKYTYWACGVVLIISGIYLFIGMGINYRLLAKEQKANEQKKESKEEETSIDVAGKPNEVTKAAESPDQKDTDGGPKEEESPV
Assay: competition MSD binding assay, antibody titrated with HEK WT cells expressing MCT1, apparent KD, screening at 25 C
# note: exactly 2 nM is not below, so it is -1; use 1 for Kd strictly under it

anti-human MCT1 antibody Ab1 (antibody, human IgG1, kappa, V domains shown, human IgG1 effector null (IgG1EN) backbone; also called humanized Framework antibody Ab1) VH: QVQLVQSGAEVKKPGASVKVSCTVSGFSLTNYHLQWVRQAPGQGLEWMGFIRSSGNTEYNSEFKSRVTMTRDTSTSTVYMELSSLRSEDTAVYYCARNSWYHGTYYSPGYYVMDAWGQGTLVTVSS VL: EIVLTQSPGTLSLSPGERATLSCKGSQNINNYLAWYQQKPGQAPRLLIYNRHNLQTGIPDRFSGSGSGTDFTLTISRLEPEDFAVYYCYQYSDGYTFGGGTKVEIKR    -1
anti-human MCT1 antibody Ab11 (antibody, human IgG1, kappa, V domains shown, IgG1EN backbone) VH: QVQLVQSGAEVKKPGASVKVSCTVSGRSLTNYHLQWVRQAPGQGLEWMGFIRSSGNTEYNSEFKSRVTMTRDTSTSTVYMELSSLRSEDTAVYYCARNRWHHGTYYSPGYYVMDAWGQGTLVTVSS VL: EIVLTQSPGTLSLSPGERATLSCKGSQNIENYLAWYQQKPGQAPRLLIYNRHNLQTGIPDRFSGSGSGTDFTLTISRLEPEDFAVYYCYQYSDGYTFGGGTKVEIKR    1
anti-human MCT1 antibody Ab13 (antibody, human IgG1, kappa, V domains shown, IgG1EN backbone) VH: QVQLVQSGAEVKKPGASVKVSCTVSGRSLTNYHLQWVRQAPGQGLEWMGFIRSSGNTEYNSEFKSRVTMTRDTSTSTVYMELSSLRSEDTAVYYCARNRWRHGTYYSPGYYVMDAWGQGTLVTVSS VL: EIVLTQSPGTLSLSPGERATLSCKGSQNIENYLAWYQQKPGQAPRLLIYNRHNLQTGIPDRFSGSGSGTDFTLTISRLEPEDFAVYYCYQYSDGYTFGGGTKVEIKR    -1
anti-human MCT1 antibody Ab19 (antibody, human IgG1, kappa, V domains shown, IgG1EN backbone) VH: QVQLVQSGAEVKKPGASVKVSCTVSGRSLTNYHLQWVRQAPGQGLEWMGFIRRSGNTEYNSEFKSRVTMTRDTSTSTVYMELSSLRSEDTAVYYCARNRWYHGTYYSPGYYVMDAWGQGTLVTVSS VL: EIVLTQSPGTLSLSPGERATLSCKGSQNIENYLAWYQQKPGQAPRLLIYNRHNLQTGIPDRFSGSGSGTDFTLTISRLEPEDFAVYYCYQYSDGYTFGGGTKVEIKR    1
anti-human MCT1 antibody Ab16 (antibody, human IgG1, kappa, V domains shown, IgG1EN backbone) VH: QVQLVQSGAEVKKPGASVKVSCTRSGRSLTNYHLQWVRQAPGQGLEWMGFIRSSGNTEYNSEFKSRVTMTRDTSTSTVYMELSSLRSEDTAVYYCARNRWYHGTYYSPGYYVMDAWGQGTLVTVSS VL: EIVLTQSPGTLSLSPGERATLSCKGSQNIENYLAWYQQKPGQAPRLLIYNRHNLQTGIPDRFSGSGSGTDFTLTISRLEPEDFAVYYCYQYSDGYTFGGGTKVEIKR    1
